System: T1, hiR2-FL-D535-T7 (deletion of D535) (human, UniProt Q6PJF5 1-856)
T1 construct: single amino acid deletion
T1 sequence: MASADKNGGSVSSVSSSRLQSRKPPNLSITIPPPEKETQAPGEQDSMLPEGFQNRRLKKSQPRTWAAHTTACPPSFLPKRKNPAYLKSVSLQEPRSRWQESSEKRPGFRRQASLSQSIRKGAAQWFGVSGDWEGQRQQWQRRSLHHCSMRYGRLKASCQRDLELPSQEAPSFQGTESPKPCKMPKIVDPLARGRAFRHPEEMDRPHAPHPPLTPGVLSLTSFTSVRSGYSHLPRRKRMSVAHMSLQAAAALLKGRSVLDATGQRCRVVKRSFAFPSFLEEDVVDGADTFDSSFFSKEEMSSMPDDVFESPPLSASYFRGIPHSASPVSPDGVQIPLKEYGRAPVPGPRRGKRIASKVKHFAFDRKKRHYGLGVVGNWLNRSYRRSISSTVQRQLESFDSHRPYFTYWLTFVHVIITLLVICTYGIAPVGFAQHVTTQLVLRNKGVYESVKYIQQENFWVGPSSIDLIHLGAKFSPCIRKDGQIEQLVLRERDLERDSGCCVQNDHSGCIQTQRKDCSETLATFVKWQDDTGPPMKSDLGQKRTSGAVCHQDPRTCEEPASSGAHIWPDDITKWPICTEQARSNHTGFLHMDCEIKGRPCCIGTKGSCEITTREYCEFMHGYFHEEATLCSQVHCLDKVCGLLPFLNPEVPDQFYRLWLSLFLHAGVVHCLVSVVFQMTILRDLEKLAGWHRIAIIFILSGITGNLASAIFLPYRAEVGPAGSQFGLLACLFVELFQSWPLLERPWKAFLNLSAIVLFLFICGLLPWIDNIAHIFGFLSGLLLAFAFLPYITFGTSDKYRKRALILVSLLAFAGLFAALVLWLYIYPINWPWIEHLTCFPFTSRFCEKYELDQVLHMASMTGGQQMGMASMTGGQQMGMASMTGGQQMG
Experimental Protocol: FACS, MEF-DKO cells, 3 µg/ml
Reported Metric: loss of binding vs wild type

Binder: antibody 42 (antibody, V domains shown, mouse IgG, kappa light chain; also called clone #42; purified antibody 42) VH: QVTLKESGPGILQPSQTLSLTCSLSGFSLSTFGRGVGWIRQPSGKGLEWLAHIWWDDEKYYNPALKSRLTISKDTSKNQVFLRIANVDTADTATYYCARIQNYGSNYWYFDVWGTGTTVTVSS VL: LIVLTQSPAIMSASPGEKVTMTCGATSRISYMFWYQQKPGSSPRVLIYDTSNLASGVPVRFSGSGSGTSYSLTISRVEAEDVATYYCQQWNSYPLTFGAGTKLELK
loss of binding vs wild type: ≥ 95%
//
Binder: antibody 43 (antibody, V domains shown, mouse IgG, kappa light chain; also called clone #43; purified antibody 43) VH: QVALKESGPGILQPSQTLSLTCSFSGFSLSTFGMGVGWIRQSSGKGLEWLANIWWDDDKYYNPALKSRLTISKDASKNQAFLKIANVDTADTATYYCARIGNYGSNYWYFDVWGTGTTVTVSS VL: QIVLTQSPAIMSASPGERVTMTCSANSRISYMYWYQQKPGSSPRLLIYDTSNLASGVPVRFSGSGSGTSYSLTISRMEAEDAATYNCQQWSSYPLTFGAGTKLELK
loss of binding vs wild type: ≥ 95%

Exam item: Give reported loss of binding vs wild type value for antibody 44 (antibody, V domains shown, mouse IgG, kappa light chain; also called clone #44; purified antibody 44) VH: QVTLKESGPGILQPSQTLSLTCSFSGFSLSTFGMGVGWIRQPSEKGLEWLAHIWWDDDKYYNPALKSRLTISKDTSKNQIFLKITNVDTAETATYYCSRIGNYGSNYWYFDVWGTGTTVTVSS VL: QIVLTQSPAVMSASPGEKVTMTCTASSSVYYMYWYQQTPGSSPRLLIYDTSNLASGVPVRFSGSGSGTSYSLTISRMEAEDAATYYCQQWNTYPLTFGAGTKLELK
Marked response: ≥ 95%
